assay: Peptide stability in simulated gastric fluid (SGF); format: in vitro ADME; conditions: pig, simulated gastric fluid (SGF) with porcine pepsin, 4 h, 37 °C, pH 1.2, porcine pepsin 3.2 g/L
*1 amine or outer side, *2 acyl side, *3 side chain or, on linkers, in order; H or OH if unused. Where a SMILES comes first, the peptide text is derived from it. Bridges are numbered along the chain shown (N, C = ends). [ ]: non-standard residue; d: D form. 2Nal = N[C@@H](Cc1ccc2ccccc2c1)C(=O)O; AEF = NCCOc1ccc(C[C@H](N)C(=O)O)cc1; X1 = O=C(Cc1ccc(CN[*:1])cc1)[*:2]; 3Pal = N[C@@H](Cc1cccnc1)C(=O)O; αMeL = CC(C)C[C@](C)(N)C(=O)O; Dab = NCC[C@H](N)C(=O)O
API: label(entry) gives Criterion met if the entry's remaining at 4 h, 10 µM is strictly smaller than 90%; on equality or larger values it gives Criterion not met.

Please review the following examples before continuing.
CNC(=O)[C@H](Cc1cccnc1)NC(=O)[C@H](CCN)NC(=O)[C@@H]1CCC(=O)NCc2ccc(cc2)CC(=O)N[C@@H](C)C(=O)N[C@H]2CCC(=O)NCC[C@H](NC(=O)[C@H](CCC(N)=O)NC(=O)[C@H](Cc3c[nH]c4ccccc34)NC2=O)C(=O)N[C@@H](Cc2c[nH]c3ncccc23)C(=O)N[C@@H](Cc2ccc3ccccc3c2)C(=O)NC(C)(C)C(=O)N1    Criterion not met
CC(C)C[C@]1(C)NC(=O)[C@H](Cc2ccc3ccccc3c2)NC(=O)[C@H](Cc2ccc(OCCN)cc2)NC(=O)[C@@H]2CCNC(=O)CC[C@H](NC(=O)[C@H](CO)NC(=O)Cc3ccc(cc3)CNC(=O)CC[C@@H](C(=O)N[C@@H](CCN)C(=O)N[C@H](Cc3c[nH]cn3)C(N)=O)NC1=O)C(=O)N[C@@H](Cc1c[nH]c3ccccc13)C(=O)N[C@@H](CCC(N)=O)C(=O)N2    Criterion met
CC(C)C[C@]1(C)NC(=O)[C@H](Cc2ccc3ccccc3c2)NC(=O)[C@H](Cc2ccc(OCCN)cc2)NC(=O)[C@@H]2CCNC(=O)CC[C@H](NC(=O)[C@H](CO)NC(=O)Cc3ccc(cc3)CNC(=O)CC[C@@H](C(=O)N[C@@H](CCN)C(=O)NCCc3cccnc3)NC1=O)C(=O)N[C@@H](Cc1c[nH]c3ccccc13)C(=O)N[C@@H](CCC(N)=O)C(=O)N2    Criterion met

For CC(C)C[C@]1(C)NC(=O)[C@H](Cc2ccc3ccccc3c2)NC(=O)[C@H](Cc2ccc(OCCN)cc2)NC(=O)[C@@H]2CCNC(=O)CC[C@H](NC(=O)[C@H](CO)NC(=O)Cc3ccc(cc3)CNC(=O)CC[C@@H](C(=O)N[C@@H](CCN)C(=O)N[C@@H](Cc3cccnc3)C(=O)N[C@H](Cc3c[nH]cn3)C(N)=O)NC1=O)C(=O)N[C@@H](Cc1c[nH]c3ccccc13)C(=O)N[C@@H](CCC(N)=O)C(=O)N2 [Compound 10] ([X1]SEWQ[Dab][AEF][2Nal][αMeL]E[Dab][3Pal][dH]-NH2; lactam 3-6, N-10) , is the recorded remaining at 4 h, 10 µM below the cut-off of 90%?
Criterion met

Criterion: remaining at 4 h, 10 µM strictly below 90%. Is it met by CC(C)C[C@]1(C)NC(=O)[C@H](Cc2ccc3ccccc3c2)NC(=O)[C@H](Cc2ccc(OCCN)cc2)NC(=O)[C@@H]2CCNC(=O)CC[C@H](NC(=O)[C@H](CO)NC(=O)Cc3ccc(cc3)CNC(=O)CC[C@@H](C(=O)N[C@@H](CCN)C(=O)N[C@@H](Cc3c[nH]cn3)C(=O)N[C@@H](Cc3cccnc3)C(N)=O)NC1=O)C(=O)N[C@@H](Cc1c[nH]c3ccccc13)C(=O)N[C@@H](CCC(N)=O)C(=O)N2 [Compound 12] ([X1]SEWQ[Dab][AEF][2Nal][αMeL]E[Dab]H[3Pal]-NH2; lactam 3-6, N-10) ?
Criterion not met

State whether 90% exceeds remaining at 4 h, 10 µM recorded for CC(C)C[C@]1(C)NC(=O)[C@H](Cc2ccc3ccccc3c2)NC(=O)[C@H](Cc2ccc(OCCN)cc2)NC(=O)[C@@H]2CCNC(=O)CC[C@H](NC(=O)[C@H](CO)NC(=O)Cc3ccc(cc3)CNC(=O)CC[C@@H](C(=O)N[C@@H](CCN)C(=O)N[C@@H](Cc3cn(C)cn3)C(N)=O)NC1=O)C(=O)N[C@@H](Cc1c[nH]c3ccccc13)C(=O)N[C@@H](CCC(N)=O)C(=O)N2 .
Criterion met

Quick check: remaining at 4 h, 10 µM of CNC(=O)[C@H](Cc1cccnc1)NC(=O)C1(NC(=O)[C@@H]2CCC(=O)NCc3ccc(cc3)CC(=O)N[C@@H](CO)C(=O)N[C@H]3CCC(=O)NCC[C@H](NC(=O)[C@H](CCC(N)=O)NC(=O)[C@H](Cc4c[nH]c5ccccc45)NC3=O)C(=O)N[C@@H](Cc3ccc(OCCN)cc3)C(=O)N[C@@H](Cc3ccc4ccccc4c3)C(=O)N[C@@](C)(CC(C)C)C(=O)N2)CCOCC1 under 90%?
Criterion not met

Given CNC(=O)[C@H](Cc1cccnc1)NC(=O)[C@H](CCC(N)=O)NC(=O)[C@@H]1CCC(=O)NCc2ccc(cc2)CC(=O)N[C@@H](CO)C(=O)N[C@H]2CCC(=O)NCC[C@H](NC(=O)[C@H](CCC(N)=O)NC(=O)[C@H](Cc3c[nH]c4ccccc34)NC2=O)C(=O)N[C@@H](Cc2ccc(OCCN)cc2)C(=O)N[C@@H](Cc2ccc3ccccc3c2)C(=O)N[C@@](C)(CC(C)C)C(=O)N1 [Compound 33] ([X1]SEWQ[Dab][AEF][2Nal][αMeL]EQ[3Pal]-NHMe; lactam 3-6, N-10) , is recorded remaining at 4 h, 10 µM strictly lower than 90%?
Criterion not met

Every entry's value here was drawn from patent EP4471049A1.
